- Test Target: BCL-XLΔC (Homo sapiens, UniProt Q07817)
- Sequence (Q07817 1-212 limits assumed, stated change not applied): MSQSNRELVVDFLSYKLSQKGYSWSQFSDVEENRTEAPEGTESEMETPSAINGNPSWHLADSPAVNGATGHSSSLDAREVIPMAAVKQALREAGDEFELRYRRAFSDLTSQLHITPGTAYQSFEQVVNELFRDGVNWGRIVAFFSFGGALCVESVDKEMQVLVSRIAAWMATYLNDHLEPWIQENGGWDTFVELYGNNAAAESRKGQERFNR
- Measurement Notes: High-throughput competitive FP binding screen, FITC-BAD BH3/BCL-XLΔC interaction
- Condition Notes: FITC-BAD BH3/BCL-XLΔC interaction pair, competitive FP screen
Measure: BCL-XL % Bound (%)
The figure you give is taken to be in %; do not add the unit.

The compound listed as Cc1ccc(C)c2[nH]c(=O)c(C(c3nnnn3C3CCCC3)N3CCCC3)cc12 (centres unmarked) shows BCL-XL % Bound equal to 103.3

The compound listed as `Cc1occc1-c1nnc2sc(Cc3cccc4ccccc34)nn12` shows BCL-XL % Bound equal to 129.5

The compound listed as `O=C1C=CC(=O)C(Sc2nnnn2-c2ccccc2)=C1` shows BCL-XL % Bound equal to 101.3

The compound listed as Cc1ccnc(NC(c2ccco2)c2c(C)[nH]c3ccccc23)c1 (centres unmarked) shows BCL-XL % Bound equal to 94.99

The compound listed as `Cc1ccccc1OCC1=NN2C(=N)/C(=C\c3ccc(SCc4ccco4)o3)C(=O)N=C2S1` shows BCL-XL % Bound equal to 73.83

The compound listed as O=c1cc(-c2ccccc2)oc2cc(O)c(O)c(O)c12 [drawing 161] shows BCL-XL % Bound equal to 104.2

The compound listed as `O=C1C(Sc2nc[nH]n2)=C/C(=N/S(=O)(=O)c2ccc(F)cc2)c2ccccc21` shows BCL-XL % Bound equal to 96.12

The compound listed as `CN(Cc1ccc(-c2ccc(Br)cc2)o1)C(=O)c1ccc(S(N)(=O)=O)cc1` shows BCL-XL % Bound equal to 115.2

The compound listed as `O=C1C=Cc2ccc3c4c(ccc1c24)C=CC3=O` shows BCL-XL % Bound equal to 91.4

The compound listed as `O=c1ccc(-c2ccco2)nn1Cc1ccc(Cl)c(Cl)c1` shows BCL-XL % Bound equal to 96.49

The compound listed as CCSC1=C(C#N)C(=O)NC(c2ccc(N(C)C)cc2)S1 (centres unmarked) shows BCL-XL % Bound equal to 79.68

The compound listed as `Cc1nc(COC(=O)c2cc(O)c3ccccc3c2O)cs1` shows BCL-XL % Bound equal to 101.3

The compound listed as `Oc1ccc2cc3c4cc(Br)ccc4nc-3oc2c1O` shows BCL-XL % Bound equal to 90.07

The compound listed as `CC1=C(C#N)C(=O)N(C)C(=O)/C1=C/c1ccc(-c2cccc(Cl)c2C)o1` shows BCL-XL % Bound equal to 86.24

The compound listed as `NC(=O)c1c(Nc2nc3c(F)cccc3s2)sc2c1CCCC2` shows BCL-XL % Bound equal to 103.9

The compound listed as COC(=O)C1C(=O)NC(S)=C(C#N)C1c1ccccc1Cl (centres unmarked) shows BCL-XL % Bound equal to 94.15

The compound listed as `CCOC(=O)c1ccc(-c2ccc(/C=C3\S/C(=N\N=C4/C(=O)Nc5ccccc54)NC3=O)o2)cc1` shows BCL-XL % Bound equal to 66.63

The compound listed as N#CSC(C#N)Cc1ccccc1 (centres unmarked) shows BCL-XL % Bound equal to 103.6

The compound listed as `Cc1cccc(CSc2ccc(-c3ccco3)nn2)c1` shows BCL-XL % Bound equal to 95.36

The compound listed as `Cc1ccc(NC(=O)COc2ncnc3c2cnn3-c2ccccc2)cc1` shows BCL-XL % Bound equal to 99.91

The compound listed as `Cn1c(S)nnc1CNc1cccc(C(F)(F)F)c1` shows BCL-XL % Bound equal to 102.2

The compound listed as `Cc1cs/c(=N\C2CCCCC2)n1/N=C/c1ccc(O)c(O)c1O` shows BCL-XL % Bound equal to 89.95

The compound listed as `Cc1ccc(NCc2n[nH]c(=S)n2-c2ccccc2)cc1` shows BCL-XL % Bound equal to 94.84

###

Kindly supply the reported MCL-1% Bound values for the records listed here.
- Test Target: MCL-1ΔNΔC (Homo sapiens)
- Sequence (Q07820 172-320 limits assumed, stated change not applied): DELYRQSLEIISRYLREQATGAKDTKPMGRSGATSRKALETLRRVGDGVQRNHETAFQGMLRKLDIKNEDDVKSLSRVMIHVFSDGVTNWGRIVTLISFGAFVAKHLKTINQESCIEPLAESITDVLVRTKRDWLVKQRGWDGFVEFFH
- Measurement Notes: High-throughput competitive FP binding screen, FITC-MCL-1 SAHB/MCL-1ΔNΔC interaction
- Parameters: the C-terminal alpha-helix was deleted from each of these constructs; GST (N, cleaved yes); made in house
- Condition Notes: FITC-MCL-1 SAHB/MCL-1ΔNΔC interaction pair, competitive FP screen
The figure you give is taken to be in %; do not add the unit.

The compound listed as `Cc1ccccc1OCC1=NN2C(=N)/C(=C\c3ccc(SCc4ccco4)o3)C(=O)N=C2S1` shows MCL-1% Bound equal to 19.18

The compound listed as `N#C/C(=C/c1ccc(-c2ccc(C(=O)O)cc2)o1)c1ccc(Cl)cc1` shows MCL-1% Bound equal to 35.83

The compound listed as `O=C1N=C(Nc2cccc(Cl)c2Cl)S/C1=C/c1ccco1` shows MCL-1% Bound equal to 15.57

The compound listed as `O=c1oc2cc(Cl)c(O)c(Cl)c2s1` shows MCL-1% Bound equal to −5.219

The compound listed as O=c1c(O)c(-c2ccc(O)c(O)c2)oc2cc(O)cc(O)c12 [drawing 167] shows MCL-1% Bound equal to 16.69

###

- Test Target: UniProt Q07817
- Measurement Notes: High-throughput competitive FP binding screen, FITC-BAD BH3/BCL-XLΔC interaction
- Condition Notes: FITC-BAD BH3/BCL-XLΔC interaction pair, competitive FP screen
Kindly supply the reported BCL-XL % Bound values for the records listed here.
The figure you give is taken to be in %; do not add the unit.

The molecule listed as `O=C1CSCC(=O)N1c1csc(C(F)(F)F)c1-c1ccccc1` shows BCL-XL % Bound equal to 96.35

The molecule listed as `O=C1N=C(Nc2cccc(Cl)c2Cl)S/C1=C/c1ccco1` shows BCL-XL % Bound equal to 89.44

The molecule listed as `CCOc1ccc(S(=O)(=O)/N=C2/C=C(Sc3nc[nH]n3)C(=O)c3ccccc32)cc1` shows BCL-XL % Bound equal to 103.4

The molecule listed as `Cc1ccccc1OCC1=NN2C(=N)/C(=C\c3cccn3-c3cccc(Cl)c3)C(=O)N=C2S1` shows BCL-XL % Bound equal to 92.89

The molecule listed as Cc1ccc2c(c1)CC[C@H]1C3CC[C@H](NCCCCCCN4C(=O)C=CC4=O)[C@@]3(C)CC[C@H]21 (some centres unmarked) [U73122, reference compound] shows BCL-XL % Bound equal to 106.3

###

- Test Target: BCL-XLΔC (Homo sapiens, UniProt Q07817)
- Measurement Notes: High-throughput competitive FP binding screen, FITC-BAD BH3/BCL-XLΔC interaction
- Condition Notes: FITC-BAD BH3/BCL-XLΔC interaction pair, competitive FP screen
Kindly supply the reported BCL-XL % Bound values for the records listed here.
Please state the value followed by its unit.

The compound listed as `O=C1C=CC(=O)C(CCC2=CC(=O)C=CC2=O)=C1` shows BCL-XL % Bound equal to 93.01%

The compound listed as O=C1c2ccccc2CCC1Sc1nnc(-c2ccncc2)o1 (stereo not shown) shows BCL-XL % Bound equal to 88.38%

The compound listed as O=c1c(O)c(-c2cc(O)c(O)c(O)c2)oc2cc(O)cc(O)c12 [drawing 222] shows BCL-XL % Bound equal to 102.4%

The compound listed as Cc1c(Cl)cccc1N1C(=O)CC(N2CCCc3ccccc32)C1=O (stereo not shown) shows BCL-XL % Bound equal to 84.74%

The compound listed as `CC(C)/N=c1\scc(-c2cccs2)n1/N=C/c1ccc(O)c(O)c1O` shows BCL-XL % Bound equal to 101.7%

The compound listed as `O=C1NC(=S)N/C1=C1/C(=O)Nc2ccccc21` shows BCL-XL % Bound equal to 112.9%

The compound listed as `Cc1ccc(C)n1-c1cc(Cl)ccc1C(=O)O` shows BCL-XL % Bound equal to 75.93%

The compound listed as `CCOC(=O)c1cc(CC)sc1NC(=O)C=C(C)C` shows BCL-XL % Bound equal to 90.12%

The compound listed as `O=C(CSc1nnc(-c2ccco2)c(-c2ccco2)n1)N1c2ccccc2Sc2ccc(Cl)cc21` shows BCL-XL % Bound equal to 98.3%

The compound listed as `COC(=O)c1cc(OC(=O)c2ccccc2Br)n(C)n1` shows BCL-XL % Bound equal to 103.1%

The compound listed as `Fc1ccccc1OCCSc1nnc2c(n1)[nH]c1ccccc12` shows BCL-XL % Bound equal to 99.56%

The compound listed as `Cc1ccc(CN(C)C(=O)c2ccccc2OCCOc2ccccc2)o1` shows BCL-XL % Bound equal to 114.2%

The compound listed as `N=C1NC(=O)/C(=C2/C(=O)Nc3ccc(Br)cc32)S1` shows BCL-XL % Bound equal to 95.58%

The compound listed as CCOc1ccc(S(=O)(=O)NC2C=C(Sc3nc[nH]n3)C(=O)c3ccccc32)cc1 (stereo not shown) shows BCL-XL % Bound equal to 103.4%

The compound listed as `CC(C)CN1C(=O)/C(=C\c2ccc(-c3ccc(S(N)(=O)=O)cc3)o2)SC1=S` shows BCL-XL % Bound equal to 105.9%

The compound listed as `C/N=c1\scc(-c2c[nH]c3ccccc23)n1C` shows BCL-XL % Bound equal to 114.1%

The compound listed as `CCOC(=O)/C(C#N)=C\c1ccc(N2CCOCC2)cc1` shows BCL-XL % Bound equal to 78.1%

The compound listed as `Cc1ccc2n1CCn1cc(-c3ccc(Br)cc3)cc1-2` shows BCL-XL % Bound equal to 99.37%

The compound listed as `Cc1nn(C)c2nc(NNC(=O)c3cccc(C(F)(F)F)c3)ccc12` shows BCL-XL % Bound equal to 107.3%

The compound listed as `N#Cc1cc2c([nH]c1=S)CCC2` shows BCL-XL % Bound equal to 86.64%

The compound listed as `Cc1nn(-c2ccccc2)c2nc3ccccc3c(N3CCOCC3)c12` shows BCL-XL % Bound equal to 98.28%

The compound listed as CC1=C(C#N)C(=O)N=C(O)/C1=C\c1ccc(-c2ccc(S(N)(=O)=O)cc2)o1 [drawing 192] shows BCL-XL % Bound equal to 93.7%

The compound listed as `CCOC(=O)c1ccc2nc(NC(=O)CSc3nc(C)cc(=O)[nH]3)sc2c1` shows BCL-XL % Bound equal to 106.3%

The compound listed as COc1cc(C(c2nnnn2C2CCCCC2)N2CCc3ccccc3C2)ccc1O (stereo not shown) shows BCL-XL % Bound equal to 105.8%

The compound listed as COc1ccc2c(c1)CC[C@@H]1C2CC[C@@]2(C)C1CC[C@@H]2NCCCCCCN1C(=O)CCC1=O (stereo partly shown) [drawing 365] shows BCL-XL % Bound equal to 106.3%

The compound listed as `C=CCSc1nnc(-c2ccc(C(C)(C)C)cc2)n1Cc1ccco1` shows BCL-XL % Bound equal to 122.3%

The compound listed as CN1C(=O)C2(NN=C(c3ccccc3)S2)c2cc(Br)ccc21 (stereo not shown) shows BCL-XL % Bound equal to 81.72%

The compound listed as `[Na+].[Na+].[O-]c1c(Cl)cc(Cl)cc1Sc1cc(Cl)cc(Cl)c1[O-]` shows BCL-XL % Bound equal to 100.4%

The compound listed as `O=c1oc2cc(Cl)c(O)c(Cl)c2s1` shows BCL-XL % Bound equal to 104.7%

The compound listed as `COc1ccc(-c2nc3scc(CCNC(=O)/C=C/c4ccco4)n3n2)cc1` shows BCL-XL % Bound equal to 86.75%

The compound listed as `CN1CCC(N(C)Cc2cc(C(C)(C)C)c(O)c(C(C)(C)C)c2)CC1` shows BCL-XL % Bound equal to 109.3%

The compound listed as `O=c1[nH]cnc2ccc(Br)cc12` shows BCL-XL % Bound equal to 93.69%

The compound listed as COc1ccc(N(C)C(=S)Nc2ccc3nc(-c4ccco4)c(-c4ccco4)nc3c2)cc1 [drawing 44] shows BCL-XL % Bound equal to 81.17%

The compound listed as CCN1C(=O)C2Cc3cc(OC)c(OC)cc3CN2C1=S (stereo not shown) shows BCL-XL % Bound equal to 91.73%

The compound listed as `COc1ccc(C2=CC(=O)C=CC2=O)cc1` shows BCL-XL % Bound equal to 92.03%

The compound listed as `N#C/C(=C\C=C\c1ccco1)C(N)=S` shows BCL-XL % Bound equal to 63.54%

The compound listed as Oc1cccnc1NC(c1ccc(F)cc1)c1ccc2cccnc2c1O (stereo not shown) shows BCL-XL % Bound equal to 113.7%

The compound listed as `COC(=O)c1c(N)sc2c1Cc1ccccc1C2` shows BCL-XL % Bound equal to 92.93%

The compound listed as `CNC(=S)N/N=C1\CCOc2ccc3ccccc3c21` shows BCL-XL % Bound equal to 96.07%

The compound listed as `CCCCCSc1nnc(N/C=N/O)s1` shows BCL-XL % Bound equal to 98.25%

The compound listed as O=c1c(O)c(-c2ccc(O)c(O)c2)oc2cc(O)cc(O)c12 [Quercetin, reference compound] shows BCL-XL % Bound equal to 105.3%

The compound listed as `Cc1oc(-c2cccc(C(F)(F)F)c2)cc1C(=O)O` shows BCL-XL % Bound equal to 81.9%

The compound listed as `O=C(NCc1ccco1)c1ccc(-c2cc3ccccc3oc2=O)cc1` shows BCL-XL % Bound equal to 115.7%

The compound listed as `Cc1cccc(NC(=O)CSc2nncc(=O)[nH]2)c1` shows BCL-XL % Bound equal to 82.27%

The compound listed as `CCCCC(=O)Cc1ccco1` shows BCL-XL % Bound equal to 103%

The compound listed as `O=C(CSc1nnc(-c2ccoc2)c(-c2ccoc2)n1)c1ccc(-c2ccccc2)cc1` shows BCL-XL % Bound equal to 98.52%

Values were extracted from patent US20150315211A1.
